# System: E34 (patient-derived glioblastoma stem cells of proneural subtype)
# PROTOCOL_SUMMARY: surviving fraction (nuclei count normalised to DMSO); higher = more cells surviving (less toxic)
# CONDITION_PARAMETERS: 333.3 nM; exposure time: 72 h
Lab note: anything with surviving fraction at or over 1 counts as Met; the rest go in Not met.

MOLECULE	ASSAY_TARGET	CLASS_ASSIGNMENT
COC(=O)C[C@](O)(CCCC(C)(C)O)C(=O)O[C@@H]1C(OC)=C[C@]23CCCN2CCc2cc4c(cc2[C@H]13)OCO4 [Homoharringtonine]	E34	Not met
CC(C)C[C@H](NC(=O)CNC(=O)c1cc(Cl)ccc1Cl)B(O)O [Ixazomib]	E34	Not met
Cc1cc(C(C)(C)CC(C)(C)C)ccc1OCCOCC[N+](C)(C)Cc1ccccc1 [Methyl benzethonium chloride]	E34	Met
CC1(C)S[C@@H]2[C@H](NC(=O)Cc3ccccc3)C(=O)N2[C@H]1C(=O)O [Benzylpenicillin sodium]	E34	Not met
COc1cc(/C=C/C(=O)N2CCC=CC2=O)cc(OC)c1OC [Piperlongumine]	E34	Met
C/C=C1\NC(=O)[C@H]2CSSCC/C=C/[C@H](CC(=O)N[C@H](C(C)C)C(=O)N2)OC(=O)[C@H](C(C)C)NC1=O [Romidepsin]	E34	Not met
Cc1ccc2c(c1)C1(CCN(CCc3nc(-c4ccccc4)oc3C)CC1)OC(=O)N2	E34	Met
Cc1cc(Nc2cc(CN3CCOCC3)c3nc(C)c(Cc4ccc(Cl)cc4F)n3n2)n[nH]1 [Gandotinib]	E34	Not met
O=C(Nc1ccc([N+](=O)[O-])cc1Cl)c1cc(Cl)ccc1O [Niclosamide]	E34	Not met
Cc1nc2ccccn2c(=O)c1CCN1CCC(C(=O)c2ccc(F)cc2)CC1 [Pirenperone]	E34	Not met
CC[C@@H]1C(=O)N(C)c2cnc(Nc3ccc(C(=O)N[C@H]4CC[C@H](N5CCN(CC6CC6)CC5)CC4)cc3OC)nc2N1C(C)C [Volasertib]	E34	Not met

* * *

# System: E57 (patient-derived glioblastoma stem cells of mesenchymal subtype)
# PROTOCOL_SUMMARY: surviving fraction (nuclei count normalised to DMSO); higher = more cells surviving (less toxic)
# CONDITION_PARAMETERS: 12.3 nM; exposure time: 72 h
Where a name gives a salt, the structure may show the parent alone.
REPORTED_METRIC: surviving fraction

MOLECULE	ASSAY_TARGET	REPORTED_METRIC	RESULT
Clc1ccc(COC(Cn2ccnc2)c2ccc(Cl)cc2Cl)cc1 (centres undefined) [Econazole nitrate]	E57	surviving fraction	1.04
Cc1c(-c2ccc(-c3ccccc3F)cc2)nc2ccc(F)cc2c1C(=O)O [Brequinar sodium salt hydrate]	E57	surviving fraction	0.999
NCc1ccccc1CC(=O)N[C@@H]1C(=O)N2C(C(=O)O)=C(CSc3nnnn3CC(=O)O)CS[C@H]12 [Ceforanide]	E57	surviving fraction	0.985
N=C(N)NCc1cccc(I)c1 [Iobenguane sulfate]	E57	surviving fraction	0.978
CNCCCC12CCC(c3ccccc31)c1ccccc12 [Maprotiline hydrochloride]	E57	surviving fraction	1.12
CC[C@@]1(O)C(=O)OCc2c1cc1n(c2=O)Cc2cc3cc(O)ccc3nc2-1 [Hydroxy Camptothecine]	E57	surviving fraction	0.165
COc1ccc([C@@H]2CC(=O)c3c(O)cc(O[C@@H]4O[C@H](CO[C@@H]5O[C@@H](C)[C@H](O)[C@@H](O)[C@H]5O)[C@@H](O)[C@H](O)[C@H]4O)cc3O2)cc1O [Hesperidin]	E57	surviving fraction	1.12
Cc1cc(C)c(CN2CCc3c(Cl)cc(-c4c(C)noc4C)c(Cl)c3C2=O)c(=O)[nH]1	E57	surviving fraction	0.955
CC(C)NCC(O)c1cc(O)cc(O)c1 (centres undefined) [Metaproterenol sulfate, orciprenaline sulfate]	E57	surviving fraction	1.11
CSc1ccc2c(c1)N(CCC1CCCCN1C)c1ccccc1S2 (centres undefined) [Thioridazine hydrochloride]	E57	surviving fraction	0.914
CC(C)C[C@H](NC(=O)[C@H](CCc1ccccc1)NC(=O)CN1CCOCC1)C(=O)N[C@@H](Cc1ccccc1)C(=O)N[C@@H](CC(C)C)C(=O)[C@@]1(C)CO1 [Carfilzomib]	E57	surviving fraction	0.00509
CN(C)C(=O)Oc1ccc[n+](C)c1 [Pyridostigmine iodide]	E57	surviving fraction	1.04
CC(=O)[C@]1(O)Cc2c(O)c3c(c(O)c2[C@@H](O[C@H]2C[C@H](N)[C@H](O)[C@H](C)O2)C1)C(=O)c1ccccc1C3=O [Idarubicin]	E57	surviving fraction	0.205
COc1cc2c(cc1O)CC[C@@H]1[C@@H]2CC[C@]2(C)[C@@H](O)CC[C@@H]12 [2-methoxyestradiol]	E57	surviving fraction	1.02
OC(c1cc(C(F)(F)F)nc2c(C(F)(F)F)cccc12)C1CCCCN1 (centres undefined) [Mefloquine hydrochloride]	E57	surviving fraction	1.05
N=C(NCCCCCCNC(=N)NC(=N)Nc1ccc(Cl)cc1)NC(=N)Nc1ccc(Cl)cc1 [Chlorhexidine]	E57	surviving fraction	1.03
CC(=O)O[C@H]1C[C@H](O[C@H]2[C@@H](O)C[C@H](O[C@H]3[C@@H](O)C[C@H](O[C@H]4CC[C@@]5(C)[C@H](CC[C@@H]6[C@@H]5C[C@@H](O)[C@]5(C)[C@@H](C7=CC(=O)OC7)CC[C@]65O)C4)O[C@@H]3C)O[C@@H]2C)O[C@H](C)[C@H]1O[C@@H]1O[C@H](CO)[C@@H](O)[C@H](O)[C@H]1O [Lanatoside C]	E57	surviving fraction	0.615
S=c1[nH]cnc2nc[nH]c12 [Mercaptopurine]	E57	surviving fraction	1.06
CC(C)C[C@H](NC(=O)[C@H](Cc1ccccc1)C[C@@H](O)[C@H](Cc1ccccc1)NC(=O)OC(C)(C)C)C(=O)N[C@@H](Cc1ccccc1)C(N)=O [L-685,458]	E57	surviving fraction	0.967
CCOC(=O)C1=C(C)NC(C)=C(C(=O)OCC)C1c1c(F)c(F)c(F)c(F)c1F [Nemadipine-A]	E57	surviving fraction	1.07
CNCCc1ccccn1 [Betahistine mesylate]	E57	surviving fraction	0.95
CC[N+](CC)(CC)CCOc1ccc(/C=C/c2ccccc2)cc1 [MG 624]	E57	surviving fraction	0.982
COc1cc(OC)c(C(=O)CCCN2CCCC2)c(OC)c1 [Buflomedil hydrochloride]	E57	surviving fraction	1.03
C[C@H](Cc1cc2c(c(C(N)=O)c1)N(CCCO)CC2)NCCOc1ccccc1OCC(F)(F)F [Silodosin]	E57	surviving fraction	0.844
CC(C)C[C@H](NC(=O)CNC(=O)c1cc(Cl)ccc1Cl)B1OC(=O)C(CC(=O)O)(CC(=O)O)O1 [MLN9708]	E57	surviving fraction	0.0162
CCC(=O)OCC(=O)[C@@]1(OC(=O)CC)[C@H](C)C[C@H]2[C@H]3[C@H]([C@@H](O)C[C@@]21C)[C@@]1(C)C=CC(=O)C=C1C[C@H]3Cl [Alclometasone dipropionate]	E57	surviving fraction	1.18
CCCCC(CC)CNC(=N)NC(=N)NCCCCCCNC(=N)NC(=N)NCC(CC)CCCC (centres undefined) [Alexidine dihydrochloride]	E57	surviving fraction	1.01
NCCCP(=O)(O)O [3-Aminopropylphosphonic acid]	E57	surviving fraction	0.912
Oc1ccc(OCc2ccccc2)cc1 [Monobenzone]	E57	surviving fraction	1.06

* * *

# System: FT3469 (normal neural stem cell line)
# PROTOCOL_SUMMARY: surviving fraction (nuclei count normalised to DMSO); higher = more cells surviving (less toxic)
# CONDITION_PARAMETERS: 37.037 nM; exposure time: 72 h
Counter-ions that a name gives are not always drawn.
Quick list: surviving fraction per entry.
REPORTED_METRIC: surviving fraction

COMPOUND	ASSAY_TARGET	REPORTED_METRIC	RESULT
O=C(O)c1ccc(-c2c[nH]c3ncc(-c4ccccc4)cc23)cc1C1CCCC1	FT3469	surviving fraction	0.972
COc1cc([C@@H]2c3cc4c(cc3[C@@H](O[C@@H]3O[C@@H]5CO[C@@H](C)O[C@H]5[C@H](O)[C@H]3O)[C@H]3COC(=O)[C@H]23)OCO4)cc(OC)c1O [Etoposide]	FT3469	surviving fraction	0.902
COC(=O)[C@@H]1[C@H]2C[C@H]3c4[nH]c5ccccc5c4CCN3C[C@@H]2CC[C@@H]1O [Yohimbine hydrochloride]	FT3469	surviving fraction	0.936
Nc1ncn([C@@H]2O[C@H](CO)[C@@H](O)[C@H]2O)c(=O)n1	FT3469	surviving fraction	0.86

* * *

# Tested on: E31 (patient-derived glioblastoma stem cells of proneural subtype);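 note: cell Painting imaging in 384-well plates, CellProfiler features reduced to at least 20 principal components, Euclidean distance versus same-plate DMSO vehicle wells (0.1% v/v), median over six images per well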
# PROTOCOL_SUMMARY: phenotypic distance (Euclidean, principal components) from DMSO controls (arbitrary units); higher = stronger morphological change
# CONDITION_PARAMETERS: 37.037 nM; exposure time: 72 h
Where a name gives a salt, the structure may show the parent alone.
REPORTED_METRIC: phenotypic distance

COMPOUND	ASSAY_TARGET	REPORTED_METRIC	RESULT
O=c1c2ccccc2[se]n1-c1ccccc1	E31	phenotypic distance	0.875
OCCN1C[C@H](O)[C@@H](O)[C@H](O)[C@H]1CO	E31	phenotypic distance	0.853
C/C=C(\C)C(=O)N[C@@H](c1ccccc1)[C@@H](O)C(=O)O[C@H]1C[C@@]2(O)[C@@H](OC(=O)c3ccccc3)[C@@H]3[C@]4(OC(C)=O)CO[C@@H]4C[C@H](O)[C@@]3(C)C(=O)[C@H](OC(C)=O)C(=C1C)C2(C)C	E31	phenotypic distance	3.82
CC(C)C[C@H](NC(=O)[C@H](Cc1ccccc1)NC(=O)c1cnccn1)B(O)O	E31	phenotypic distance	10.2
COC(=O)[C@@H]1[C@H]2C[C@H]3c4[nH]c5ccccc5c4CCN3C[C@@H]2CC[C@@H]1O [Yohimbine hydrochloride]	E31	phenotypic distance	0.688
